B1: library; a variant is named by its letters at N, in order (parent)
chain: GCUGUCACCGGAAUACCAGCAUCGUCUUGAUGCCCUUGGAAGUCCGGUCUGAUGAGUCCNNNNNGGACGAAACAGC

Variants of: B1
Assay: FACS-Seq fitted mean relative fluorescence mCherry/BFP without ligand (log10 relative fluorescence); higher = higher reporter protein expression
Conditions: HEK293T, ligand present: no
quantity_kind: FACS-Seq fitted mean (log10)
Give bare numbers.

Study these solved cases before continuing.
- UCUGU: 0.648
- UAGUC: 0.521
- AAUGC: 0.537
- AAGGU: 0.228
- CCUAA: 0.523
- CGUAC: 0.651
- CUUCC: 0.782
- CCCAC: 0.775

Look up FACS-Seq fitted mean (log10) for the entries below, preserving their order.
1. CAUGA
2. UAGCA
3. UCUGC
4. UGAGC

Ans:
[0.562, 0.617, 0.365, 1.21]
